# Test system: A549/ATCC NSCLC
# measurement-description: NCI-60 one-dose screen, 48 h (100 = growth as untreated, 0 = no growth, -100 = all killed)
# test-context: 10 µM
Compounds without any hit were thinned out: in the full panel of roughly 83,000, 20% have a hit.
Note: every record was labeled by where its growth sits among lowest = under 60%, middle = from 60% up to 90%, highest = 90% and over

Completed entries (count: 5):
Could you tell me which band COc1cccc(-c2nnc(COc3ccc(-c4nc5ccccc5[nH]4)cc3OC)o2)c1 belongs to?
highest

And what about the compound COc1ccc2c(c1)/C(=C/c1cc(OC)c(OC)c(OC)c1)C(=O)N2C ?
lowest

And what about the compound FC(F)(F)c1ccc(-c2cnc(Cl)nc2NC2CCCCCC2)cc1 ?
lowest

And what about the compound COc1ccc(-c2nc(SCC(=O)c3ccc(Br)cc3)[nH]c(=O)c2C#N)cc1 ?
highest

And what about the compound COc1ccc(-c2cc(/C=C3\C(=O)Nc4cc(Cl)ccc43)[nH]n2)cc1OC ?
middle

Further cases:
Could you tell me which band CC(C)CCN(CCCNc1c2c(nc3cc(Cl)ccc13)CCCC2)CCC(C)C belongs to?
middle

And what about the compound O=C(Nc1cccc(-c2nc3ccccc3[nH]2)c1)c1cccc(NC(=O)c2ccco2)c1 ?
middle

And what about the compound C/C(=N\NC(=S)N1CCCC1)c1ccccn1 ?
lowest

====

# Test system: A549/ATCC NSCLC
# measurement-description: NCI-60 one-dose screen, 48 h
# test-context: 10 µM
# Description: Growth inhibition of the A549/ATCC human Non-Small Cell Lung tumor cell line is measured as a screen for anti-cancer activity. Cells are grown in 96 well plates and exposed to the test compound for 48 hours. Compounds are tested at a single concentration, which is 10^-5 M for most compounds. The reported endpoint is percent growth (GI% or GIPRCNT), where numbers from 0 - 100% represent growth inhibition, and numbers from -100% - 0 represent cell death. […]
This is part of a sample that, as a whole, favours compounds with a hit. Of some 83,000 tested, about 20% had one in any assay. Calls of active or inactive are those of the source. The calls were made as follows: active = growth percent below 10; inactive = the rest.
Allowed answers: active, inactive

Completed entries (count: 5):
Look up the recorded call for COc1ccc(C2=Cc3ccc(OC(C)=O)cc3OC2)cc1 in this test.
inactive

And what about the compound CCOC(=O)C1=C(Nc2ccc(OC)cc2)C(N)=NC1=N ?
inactive

And what about the compound CC(=O)Nc1ccc2c(c1)C(N1CC3CCC(CC3)C1)c1ccccc1-2 (stereo not given) ?
inactive

And what about the compound Cc1cc(C)c(C(=O)OC(C)CNC2CCCCC2)c(C)c1 (stereo not given) ?
inactive

And what about the compound Cc1cccc2c1O/C(=C\c1ncc([N+](=O)[O-])n1C)C2=O ?
active

Now take the following compound into account.
Look up the recorded call for CC(C)(C)c1ccc(OCCCCCCN2CCNCC2)cc1 in this test.
inactive

====

# Test system: MDA-MB-231 breast
# measurement-description: NCI-60 one-dose screen, 48 h
# test-context: 10 µM
The panel holds about 83,000 compounds, 20% with a hit somewhere; the sample as a whole holds those more often. The source made the active and inactive calls. The calls were made as follows: active = growth percent below 10; inactive = the rest.
Allowed answers: active, inactive

Completed entries (count: 6):
Look up the recorded call for CCCCCc1cc[n+](CC(=O)c2ccc(Cl)cc2)cc1 in this test.
inactive

And what about the molecule COc1ccc(C2CC(c3ccc(-c4ccccc4)cc3)=NN2c2ccc(S(N)(=O)=O)cc2)cc1 (stereo unspecified) ?
inactive

And what about the molecule Oc1ccccc1-c1nnc(Cn2c(Cc3cccc4ccccc34)nc3ccccc32)o1 ?
inactive

And what about the molecule NS(=O)(=O)c1ccc(N2N=C(c3ccc(-c4ccccc4)cc3)CC2c2ccc(Cl)cc2)cc1 (stereo unspecified) ?
inactive

And what about the molecule COc1ccc2nc(C)cc(Nc3ccc(Cl)cc3)c2c1 ?
inactive

And what about the molecule Cc1ccc2c3c(cccc13)-c1ccccc1C2=O ?
inactive

Further cases:
Look up the recorded call for Clc1cc(Cl)c(Cl)c(-c2nc(-c3cccnc3)cs2)c1 in this test.
inactive

And what about the molecule FC(F)(F)c1ccc(-c2cnc(Br)nc2NC2CCCCCC2)cc1 ?
inactive

And what about the molecule COc1cc(Cn2c(-c3ccccc3)c(Cl)c3c2-c2oncc2CC3)cc(OC)c1 ?
inactive

And what about the molecule COc1cc([C@@H]2c3cc4c(cc3[C@H](SC(=N)N)[C@H]3COC(=O)[C@H]23)OCO4)cc(OC)c1OC ?
active

And what about the molecule C[C@]12CC[C@H]3[C@@H](CC=C4C[C@@H](O)CC[C@@]43C)[C@@H]1CC[C@@H]2C(=O)C/C=N/O ?
inactive

And what about the molecule COc1ccc(Cn2cc3c(c2-c2cc(OC)c(OC)c(OC)c2)CCc2cnoc2-3)cc1[N+](=O)[O-] ?
inactive

And what about the molecule NC(=O)c1ccc(Br)o1 ?
inactive

And what about the molecule Cc1ccc([P+](Cc2ccc([N+](=O)[O-])cc2)(c2ccc(C)cc2)c2ccc(C)cc2)cc1 ?
inactive

And what about the molecule Cc1nc2sccn2c1-c1csc(Nc2cccc(Cl)c2C)n1 ?
inactive

And what about the molecule [O-]c1c[n+](-c2ccc(Cl)cc2)no1 ?
inactive

And what about the molecule COc1ccc2c(=O)cc(C(Cl)(Cl)Cl)oc2c1 ?
active

====

# System: HCC-2998 colon
# measurement-description: NCI-60 one-dose screen, 48 h (100 = growth as untreated, 0 = no growth, -100 = all killed)
# test-context: 10 µM
The panel holds about 83,000 compounds, 20% with a hit somewhere; the sample as a whole holds those more often.
Reported values of growth for individual entries
Numeric answer only, unit % assumed.

Lookup: growth / HCC-2998 colon / COc1cc(/C=C/C(=O)c2cc(-c3ccccc3)ccc2O)cc(OC)c1OC
97

And what about the compound CC[C@@]1(C(N)=O)CC2C=CC1C2 (some centres not stated) ?
108

And what about the compound Fc1ccc(Nc2ccnc(N3CCN(c4ccnc5cc(Cl)ccc45)CC3)n2)cc1 ?
62.6

And what about the compound CCc1c(C(=O)NCc2c(O)ccc3cccc(O)c23)[nH]c(C)c1C(C)=O ?
47.9

And what about the compound NC(=O)C12C(=O)NC(=O)C1(C(=O)O)C21CCCC1 (configuration not stated) ?
114

And what about the compound O=C(OCC1OC(n2cc(C(F)(F)F)c(=O)[nH]c2=O)CC1OC(=O)c1ccc([N+](=O)[O-])cc1)c1ccc([N+](=O)[O-])cc1 (configuration not stated) ?
51.5

And what about the compound CCN1CCOC1C(C)C (configuration not stated) ?
101

====

# Test system: MOLT-4 leukemia
# measurement-description: NCI-60 one-dose screen, 48 h (100 = growth as untreated, 0 = no growth, -100 = all killed)
# test-context: 10 µM
This is part of a sample that, as a whole, favours compounds with a hit. Of some 83,000 tested, about 20% had one in any assay. Active and inactive are the calls of the source. The calls were made as follows: active = growth percent below 10; inactive = the rest.
measured-quantity: growth

Lookup: growth / MOLT-4 leukemia / CCCCCCCOc1cccc(/C=C2/C(=O)N=C3SCCCN32)c1
50.2% (inactive)

And what about the compound O=C(NNc1nc(N2CCCC2)nc(N2CCCC2)n1)c1ccccc1 ?
68.4% (inactive)

And what about the compound COc1cc(-c2nc3ccc(C)cc3[nH]2)ccc1OCc1nnc(-c2ccc(CC(C)C)cc2)o1 ?
82.4% (inactive)

And what about the compound COC(=O)CCCCCCCCC(C)c1ccc(C(C)=O)cc1 (stereo not drawn) ?
89.8% (inactive)

And what about the compound O=C1CC[C@@H](C(=O)N[C@H]2CSSC[C@@H](C(=O)N/C=C/c3ccc(O)cc3)NC(=O)[C@H](Cc3ccccc3)NC(=O)[C@@H]3CCCN3C(=O)[C@@H]3CCCN3C2=O)N1 ?
88.9% (inactive)

And what about the compound CCOc1cc(Br)c(C(C)NC(=O)c2cccc(OC)c2)cc1OCC (stereo not drawn) ?
49.3% (inactive)

And what about the compound Cc1nc2scc(-c3ccc(Cl)cc3)n2c(=O)c1CCN1CCOCC1 ?
78.1% (inactive)

And what about the compound COc1ccc(-c2nnc(SC/C(=N\O)c3ccccc3)o2)cc1 ?
80.4% (inactive)

And what about the compound Nc1ncc(-c2ccc(C(F)(F)F)cc2)c(NC2CCCCCC2)n1 ?
57.5% (inactive)

And what about the compound CC(=O)c1ccc(NCn2nc(-c3ccc(Cl)cc3)oc2=S)cc1 ?
81.8% (inactive)

====

# System: SK-MEL-2 melanoma
# measurement-description: NCI-60 one-dose screen, 48 h (100 = growth as untreated, 0 = no growth, -100 = all killed)
# test-context: 10 µM
# Experimental: Growth inhibition of the SK-MEL-2 human tumor cell line is measured as a screen for anti-cancer activity. Cells are grown in 96 well plates and exposed to the test compound for 48 hours. Compounds are tested at a single concentration, which is 10^-5 M for most compounds. The reported endpoint is percent growth (GI% or GIPRCNT), where numbers from 0 - 100% represent growth inhibition, and numbers from -100% - 0 represent cell death. For example, a value of 40 represents 60% growth inhibition. […]
This is part of a sample that, as a whole, favours compounds with a hit. Of some 83,000 tested, about 20% had one in any assay.
The threshold is 40%. Values of growth beneath it are tagged T; values meeting or exceeding it are tagged F.

Is the reported growth for CN(C)c1ccc2cc(-c3cc4c(oc3=O)-c3ccccc3OC4O)c(=O)oc2c1 (stereo not given) strictly below 40%?
T

And what about the compound Cc1cn(C(=O)/C(Cl)=C(/Cl)C(=O)O)c2ccccc12 ?
F

And what about the compound O=C(NC1CCCC1)c1ccc(N2CCC(NCc3cccc(C(F)(F)F)c3)CC2)cc1 ?
F

And what about the compound COCCNCC(O)Cn1c2ccc(Cl)cc2c2cc(Cl)ccc21 (stereo not given) ?
T

And what about the compound O=C1CC[C@@H](C(=O)N[C@H]2CSSC[C@@H](C(=O)NCCc3ccccc3)NC(=O)[C@H](Cc3ccccc3)NC(=O)[C@@H]3CCCN3C(=O)[C@@H]3CCCN3C2=O)N1 ?
F

Further cases:
Is the reported growth for C/C(=N\NC(=S)N1CCCC1)c1ccccn1 strictly below 40%?
T

And what about the compound COc1ccc(Cn2cc3c(c2-c2cc(OC)c(OC)c(OC)c2)CCc2cnoc2-3)cc1N ?
T

And what about the compound CN(C)CCCN1c2ccccc2Sc2ccc(C(F)(F)F)cc21 ?
T

And what about the compound CC(=O)Nc1nc(C)c(C(=O)N/N=C/c2cccn2C)s1 ?
F

And what about the compound CCCCC(CC#N)(CCC)CCC ?
F
